NOS Activity (% of control) NNOS by entry:
Molecular target: recombinant rat NNOS (Rattus norvegicus)
Construct: made in house; host or cells: HEK293 cells
Sequence (P29476 whole entry): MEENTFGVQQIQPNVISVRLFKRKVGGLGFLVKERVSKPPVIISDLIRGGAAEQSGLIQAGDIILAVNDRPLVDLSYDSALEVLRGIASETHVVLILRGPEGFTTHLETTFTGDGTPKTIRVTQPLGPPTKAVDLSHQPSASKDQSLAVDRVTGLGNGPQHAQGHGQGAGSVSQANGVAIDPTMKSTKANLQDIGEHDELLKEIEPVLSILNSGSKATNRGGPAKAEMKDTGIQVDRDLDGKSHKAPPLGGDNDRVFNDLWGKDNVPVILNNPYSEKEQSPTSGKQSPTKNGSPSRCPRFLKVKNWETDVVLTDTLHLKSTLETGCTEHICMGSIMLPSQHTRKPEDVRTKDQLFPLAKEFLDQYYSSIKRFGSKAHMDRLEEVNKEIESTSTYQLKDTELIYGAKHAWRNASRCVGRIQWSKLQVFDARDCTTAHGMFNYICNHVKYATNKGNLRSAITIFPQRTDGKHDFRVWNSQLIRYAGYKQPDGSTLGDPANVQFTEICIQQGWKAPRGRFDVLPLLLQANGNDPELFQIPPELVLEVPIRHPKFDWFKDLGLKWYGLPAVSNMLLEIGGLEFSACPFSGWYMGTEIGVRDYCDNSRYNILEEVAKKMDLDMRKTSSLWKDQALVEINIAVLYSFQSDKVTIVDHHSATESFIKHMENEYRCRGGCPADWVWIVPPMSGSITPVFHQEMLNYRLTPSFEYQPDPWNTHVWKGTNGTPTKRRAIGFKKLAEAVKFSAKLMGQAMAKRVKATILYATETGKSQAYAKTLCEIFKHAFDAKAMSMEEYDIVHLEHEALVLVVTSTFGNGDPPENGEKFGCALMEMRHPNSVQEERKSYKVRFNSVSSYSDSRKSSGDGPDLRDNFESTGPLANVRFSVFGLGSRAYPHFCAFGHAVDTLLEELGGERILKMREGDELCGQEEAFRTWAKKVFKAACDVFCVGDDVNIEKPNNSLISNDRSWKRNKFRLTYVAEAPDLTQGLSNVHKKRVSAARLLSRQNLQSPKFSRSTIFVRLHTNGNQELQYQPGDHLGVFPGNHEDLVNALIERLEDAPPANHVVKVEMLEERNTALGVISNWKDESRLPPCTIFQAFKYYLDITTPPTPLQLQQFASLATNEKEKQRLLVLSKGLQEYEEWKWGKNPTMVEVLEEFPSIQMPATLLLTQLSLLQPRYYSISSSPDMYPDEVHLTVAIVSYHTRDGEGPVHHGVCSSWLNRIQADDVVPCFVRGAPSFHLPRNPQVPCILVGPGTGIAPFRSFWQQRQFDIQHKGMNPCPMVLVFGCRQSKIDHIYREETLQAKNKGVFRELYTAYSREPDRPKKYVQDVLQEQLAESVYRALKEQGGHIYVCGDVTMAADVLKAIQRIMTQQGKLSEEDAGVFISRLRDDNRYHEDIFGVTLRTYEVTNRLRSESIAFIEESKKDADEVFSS
Assay: NOS activity, kinetic 96-well microtiter plate assay, NADPH consumption
Format: biochemical
Conditions: peptide 100 μg/ml; mean ± SEM, triplicate

- substance: "SSWRRKRKESS [BO58-08, 13; b114 cites it by residues 4-11]"
  target under test: "recombinant rat NNOS (Rattus norvegicus)"
  NOS Activity (% of control) NNOS: "19.1 ± 0.9 % of control"
- substance: "WRRKRK [BO58-07, 12]"
  target under test: "recombinant rat NNOS (Rattus norvegicus)"
  NOS Activity (% of control) NNOS: "11.0 ± 3.3 % of control"

Prompt: Query (substance): SDSRKSSGDGPDLR [BO58-11, 18] ; field requested: NOS Activity (% of control) NNOS
Completion: 98.4 ± 1.9 % of control

Prompt: Try QEERKSYKVRF [BO58-09, 16] next.
Completion: 102.0 ± 2.1 % of control

Prompt: Try RPEQHKSYKIRF [BO58-10, 17] next.
Completion: 54.5 ± 1.8 % of control

====

Tested on: NOS
Assay: Radioligand binding of [3H]-N-nitro-L-arginine to NOS
Parameters: scale not given here
Details: peptide 100 μg/ml; ligand 200 pM, 15 minutes at 23° C.; mean ± SEM
measurement kind: Ligand binding to NOS [3H]-NHA

- substance: "WRRKRK [BO58-07, 12]"
  Ligand binding to NOS [3H]-NHA: 91.7
- substance: "SSWRRKRKESS [BO58-08, 13; b114 cites it by residues 4-11]"
  Ligand binding to NOS [3H]-NHA: 120.7
- substance: "QEERKSYKVRF [BO58-09, 16]"
  Ligand binding to NOS [3H]-NHA: 118.9
- substance: "SDSRKSSGDGPDLR [BO58-11, 18]"
  Ligand binding to NOS [3H]-NHA: 119.2
- substance: "RPEQHKSYKIRF [BO58-10, 17]"
  Ligand binding to NOS [3H]-NHA: 115.0

====

Molecular target: recombinant bovine ENOS (Bos taurus)
Construct: made in house; host or cells: E. coli
Sequence (P29473 1-1205): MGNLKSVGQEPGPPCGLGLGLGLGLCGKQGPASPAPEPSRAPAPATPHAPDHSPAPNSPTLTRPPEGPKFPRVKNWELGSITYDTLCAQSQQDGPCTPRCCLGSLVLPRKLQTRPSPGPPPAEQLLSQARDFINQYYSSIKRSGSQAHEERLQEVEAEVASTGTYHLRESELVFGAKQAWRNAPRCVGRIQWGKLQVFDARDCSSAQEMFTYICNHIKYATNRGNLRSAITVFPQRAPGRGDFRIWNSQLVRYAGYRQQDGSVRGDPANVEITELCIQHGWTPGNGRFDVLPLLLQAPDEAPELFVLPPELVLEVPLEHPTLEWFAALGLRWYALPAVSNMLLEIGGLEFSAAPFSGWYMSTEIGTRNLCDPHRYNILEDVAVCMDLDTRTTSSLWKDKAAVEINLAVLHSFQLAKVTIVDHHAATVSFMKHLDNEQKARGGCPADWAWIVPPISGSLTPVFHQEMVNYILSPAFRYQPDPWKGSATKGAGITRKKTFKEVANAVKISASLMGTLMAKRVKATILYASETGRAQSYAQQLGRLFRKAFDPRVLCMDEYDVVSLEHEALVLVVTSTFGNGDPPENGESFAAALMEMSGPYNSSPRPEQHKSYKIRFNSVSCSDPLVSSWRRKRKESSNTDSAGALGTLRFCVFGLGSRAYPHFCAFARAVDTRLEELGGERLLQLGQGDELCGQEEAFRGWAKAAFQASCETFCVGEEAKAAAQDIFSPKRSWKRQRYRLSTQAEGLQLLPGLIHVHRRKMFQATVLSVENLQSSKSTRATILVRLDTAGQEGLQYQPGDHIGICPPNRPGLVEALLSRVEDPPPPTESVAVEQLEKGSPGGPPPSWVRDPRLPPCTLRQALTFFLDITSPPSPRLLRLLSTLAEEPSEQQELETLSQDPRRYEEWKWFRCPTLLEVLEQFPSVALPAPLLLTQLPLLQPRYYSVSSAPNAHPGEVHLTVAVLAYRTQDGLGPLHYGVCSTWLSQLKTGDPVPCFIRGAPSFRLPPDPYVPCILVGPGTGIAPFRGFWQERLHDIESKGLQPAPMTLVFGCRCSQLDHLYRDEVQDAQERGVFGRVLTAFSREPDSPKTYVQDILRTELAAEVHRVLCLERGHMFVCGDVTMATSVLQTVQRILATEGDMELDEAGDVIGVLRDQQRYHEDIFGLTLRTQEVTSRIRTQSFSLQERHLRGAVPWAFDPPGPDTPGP
Assay: NOS activity, kinetic 96-well microtiter plate assay, NADPH consumption
Type: biochemical
Details: peptide 100 μg/ml; mean ± SEM, triplicate
Method: NOS activity measurements were performed using recombinant rat NNOS (purified from overexpressing HEK293 cells), recombinant bovine ENOS (purified from overexpressing E. coli) or native INOS (from immunostimulant-activated rat aortic smooth muscle cells). Activity was determined with 1-20 pmole of NOS using a kinetic 96-well microtiter plate assay based on the kinetics of NADPH consumption (NNOS and ENOS) or Fe^2+-myoglobin oxidation. […]
NOS Activity (% of control) ENOS by entry:

The examples below pair each entry with its known result.
- substance: "RPEQHKSYKIRF [BO58-10, 17]"
  target under test: "recombinant bovine ENOS (Bos taurus)"
  NOS Activity (% of control) ENOS: "80.5 ± 2.0 % of control"
- substance: "WRRKRK [BO58-07, 12]"
  target under test: "recombinant bovine ENOS (Bos taurus)"
  NOS Activity (% of control) ENOS: "24.0 ± 2.8 % of control"
- substance: "QEERKSYKVRF [BO58-09, 16]"
  target under test: "recombinant bovine ENOS (Bos taurus)"
  NOS Activity (% of control) ENOS: "93.6 ± 2.3 % of control"
- substance: "SSWRRKRKESS [BO58-08, 13; b114 cites it by residues 4-11]"
  target under test: "recombinant bovine ENOS (Bos taurus)"
  NOS Activity (% of control) ENOS: "27.7 ± 2.0 % of control"

Prompt: Please tell me: NOS Activity (% of control) ENOS of SDSRKSSGDGPDLR [BO58-11, 18] , system recombinant bovine ENOS (Bos taurus)?
Completion: 102.6 ± 4.1 % of control
